src = the supplement of paper PMC10307832

# Test system: NCI-H520
# Procedure details: relative viability (nuclei count vs DMSO), 5 days (fraction); higher = more cells survive
# Stated conditions: first compound 0.01 µM
List of relative viability values.

NC(=O)Nc1cc(-c2cccc(F)c2)sc1C(=O)N[C@H]1CCCNC1 [AZD7762] + CCNC(=O)c1noc(-c2cc(C(C)C)c(O)cc2O)c1-c1ccc(CN2CCOCC2)cc1 [Luminespib] (partner 0.01 µM) ... 0.208
NC(=O)Nc1cc(-c2cccc(F)c2)sc1C(=O)N[C@H]1CCCNC1 [AZD7762] + O=C(CCCCCCC(=O)Nc1ccccc1)NO [Vorinostat] (partner 1 µM) ... 0.78

Bench note: what relative viability did NC(=O)Nc1cc(-c2cccc(F)c2)sc1C(=O)N[C@H]1CCCNC1 [AZD7762] + Cc1nc(Nc2ncc(C(=O)Nc3c(C)cccc3Cl)s2)cc(N2CCN(CCO)CC2)n1 [Dasatinib] (partner 0.075 µM) show? 0.212

Also NC(=O)Nc1cc(-c2cccc(F)c2)sc1C(=O)N[C@H]1CCCNC1 [AZD7762] + Nc1ncn([C@H]2C[C@H](O)[C@@H](CO)O2)c(=O)n1 [Decitabine] (partner 2 µM) , if possible. 0.521

Follow-up item: NC(=O)Nc1cc(-c2cccc(F)c2)sc1C(=O)N[C@H]1CCCNC1 [AZD7762] + CC(=O)Nc1cccc(-n2c(=O)n(C3CC3)c(=O)c3c(Nc4ccc(I)cc4F)n(C)c(=O)c(C)c32)c1 [Trametinib] (partner 0.02 µM) 0.713

Ok, now NC(=O)Nc1cc(-c2cccc(F)c2)sc1C(=O)N[C@H]1CCCNC1 [AZD7762] + O=C(c1cc(Cc2n[nH]c(=O)c3ccccc23)ccc1F)N1CCN(C(=O)C2CC2)CC1 [Olaparib] (partner 8 µM) 0.367

// same read-out, input: NC(=O)Nc1cc(-c2cccc(F)c2)sc1C(=O)N[C@H]1CCCNC1 [AZD7762] + C[C@]1(O)C[C@@H](c2nc(-c3ccc4ccc(-c5ccccc5)nc4c3)c3c(N)nccn32)C1 [Linsitinib] (partner 1 µM) 1.16
